- assayed-target: CDK2/E (Homo sapiens (Human), UniProt P24941)
- experimental-details: ADP-Glo Kinase Assay, CDK2/E
- Type: biochemical
- particulars: 1 μM compound; read-out: CDK2/E % INH (1 μM)
Counter-ions that a name gives are not always drawn.
In this section, each of the molecules is paired with its reported inhibition at 1 µM.
measurement-name: inhibition at 1 µM (%)

>  <molecule>
CC(C)n1c(NC2CCCNC2)nc2c(C#N)c(Br)c(Br)cc21 (centres unmarked)

>  <operator>
=

>  <result-value>
26

$$$$
>  <molecule>
CCn1c(N2CCNC(=O)C2)nc2c([N+](=O)[O-])c(Br)c(Br)cc21 [Example 22A]

>  <operator>
<

>  <result-value>
5

$$$$
>  <molecule>
CC(C)n1c(N2CCCC(CO)C2)nc2c([N+](=O)[O-])c(Br)c(Br)cc21 (centres unmarked) [Example 22H]

>  <operator>
=

>  <result-value>
16

$$$$
>  <molecule>
CC(C)n1c(C2CCCC(N)C2)nc2c([N+](=O)[O-])c(Br)c(Br)cc21 (single isomer, unassigned) [Example 26B]

>  <operator>
=

>  <result-value>
36

$$$$
>  <molecule>
CCn1c(N2CCNCC2)nc2c([N+](=O)[O-])c(Br)c(Br)cc21 [Example 1A, hydrochloride]

>  <operator>
<

>  <result-value>
5

$$$$
>  <molecule>
CCn1c(N2CCCC2CN)nc2c([N+](=O)[O-])c(Br)c(Br)cc21 (centres unmarked)

>  <operator>
<

>  <result-value>
5

$$$$
>  <molecule>
CCn1c(Nc2ccccc2N)nc2c([N+](=O)[O-])c(Br)c(Br)cc21 [Example 22N]

>  <operator>
<

>  <result-value>
5

$$$$
>  <molecule>
O=[N+]([O-])c1c(Br)c(Br)cc2c1nc(N1CCNCC1)n2C1CC1 [Example 21A, trifluoroacetate]

>  <operator>
=

>  <result-value>
5

$$$$
